target: Serine/threonine-protein kinase Chk2 (Homo sapiens, UniProt O96017)
Sequence (O96017 whole entry): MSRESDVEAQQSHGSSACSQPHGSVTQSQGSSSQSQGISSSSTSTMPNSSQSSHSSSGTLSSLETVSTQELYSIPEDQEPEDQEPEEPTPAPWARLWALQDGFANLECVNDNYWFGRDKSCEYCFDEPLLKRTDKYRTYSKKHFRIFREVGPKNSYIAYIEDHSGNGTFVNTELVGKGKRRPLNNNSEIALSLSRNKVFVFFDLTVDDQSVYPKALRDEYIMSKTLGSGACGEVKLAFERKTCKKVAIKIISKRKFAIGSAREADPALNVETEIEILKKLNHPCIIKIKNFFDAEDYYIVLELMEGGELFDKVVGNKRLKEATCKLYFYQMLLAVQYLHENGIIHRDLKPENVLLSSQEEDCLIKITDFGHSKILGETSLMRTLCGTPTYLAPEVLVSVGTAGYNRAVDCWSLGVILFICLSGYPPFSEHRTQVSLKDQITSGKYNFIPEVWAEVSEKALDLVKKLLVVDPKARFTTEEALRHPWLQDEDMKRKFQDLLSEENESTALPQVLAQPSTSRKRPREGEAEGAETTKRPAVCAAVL
Examples of molecules with documented pIC50 follow.
Give only the number. pIC50 is defined as minus log10 of concentration in molar units.

Here's what some known entries look like.
Hi! What's the reported pIC50 for Cc1sc2nc(-c3ccc(Cl)c([N+](=O)[O-])c3)c(/C=N/NC(=N)N)n2c1C on Serine/threonine-protein kinase Chk2 (Homo sapiens, UniProt O96017)?
4.31

Now give it for Cc1cn2c(/C=N/NC(=N)N)c(-c3cccc([N+](=O)[O-])c3)nc2s1 too.
4.23

Next molecule: Cl.N=C(N)N/N=C/c1c(-c2ccc(Cl)c([N+](=O)[O-])c2)nc2sccn12
4.09

What would you report for N=C(N)N/N=C/c1c(-c2ccc([N+](=O)[O-])cc2)nc2sc(Cl)cn12 ?
4.10

And for COc1cc([N+](=O)[O-])c(OC)cc1-c1nc2sccn2c1/C=N/NC(=N)N ?
4.02

Try this molecule too: CCCc1cn2c(/C=N/NC(=N)N)c(-c3cccc([N+](=O)[O-])c3)nc2s1
4.16

Please answer likewise for N=C(N)N/N=C/c1c(-c2ccc(Cl)c([N+](=O)[O-])c2)nc2ccccn12
4.10

Can you check Cc1cn2c(/C=N/NC(=N)N)c(-c3ccc(Cl)c([N+](=O)[O-])c3)nc2s1 next?
4.19

***
Provide the documented pIC50 with Serine/threonine-protein kinase Chk2 (Homo sapiens, UniProt O96017) as the system for N#Cc1ccc(-c2nc3sc(Cl)cn3c2/C=N/NC(=N)N)cc1
4.03

Queued: Cc1nn2c(/C=N/NC(=N)N)c(-c3ccc(Cl)c([N+](=O)[O-])c3)nc2s1
4.11

Note, next up: Cc1csc2nc(-c3ccc(Cl)c([N+](=O)[O-])c3)c(/C=N/NC(=N)N)n12
4.07

And for N=C(N)N/N=C/c1c(-c2ccc(F)c([N+](=O)[O-])c2)nc2sc(Cl)cn12 ?
4.38
